target: T1, ZIKV (prM80E) with a C-terminal myc-myc-hexahistidine tag (Zika virus, UniProt A0A024B7W1 104-694); test: SPR, mAb captured, 37C
T1 construct: also called ZIKV (prM80E)-mmH; ZIKV-mmH
readout: t½ (min)
Please give a number only; it is taken to be in min.

Input H4H25703N (antibody, V domains shown) VH: QVQLVESGGGVVQPGRSLRLSCAASGFTFNYYGMHWVRQAPGKGLEWVAVISYDGTNKYYADSVKGRFTTSRDNSKNTLYLQMNSLRAEDTALYYCARDRGGRFDYWGQGIQVTVSS VL: EIVLTQSPDTLSLSPGERATLSCRASQSVSSNYLAWYQQKPGQAPRLLIYGASSRATGIPDRFSGSGSGTDFTLTISRLEPEDFAVYYCQRYGTSPLTFGGGTKVEIKR . Output t½: 6.5
